Biological target: Prothrombin (Homo sapiens, UniProt P00734)
Readout label: pKi
Scale: negative log10 of molar concentration, which is what pKi denotes.

stdin: Looking for the measured pKi of Cc1nc2c(Oc3cccc(C(=O)N(C)C)c3)nc(Oc3cc(C(=N)N)ccc3O)nc2n1Cc1ccccc1 , can you help?
stdout: 5.89

Taken from ChEMBL document CHEMBL1130936.
